- System Name: AQ STING (G230A-R293Q) (Homo sapiens, UniProt Q86WV6, G230A/H232R/R293Q)
- Construct: truncated human WT STING or AQ STING (amino acid residues 140-343); 8xHis (N, cleaved yes); SUMO (N, cleaved yes); made in house; host or cells: E. coli Rosetta-gami B (DE3)
- Sequence (Q86WV6 140-343 G230A/H232R/R293Q): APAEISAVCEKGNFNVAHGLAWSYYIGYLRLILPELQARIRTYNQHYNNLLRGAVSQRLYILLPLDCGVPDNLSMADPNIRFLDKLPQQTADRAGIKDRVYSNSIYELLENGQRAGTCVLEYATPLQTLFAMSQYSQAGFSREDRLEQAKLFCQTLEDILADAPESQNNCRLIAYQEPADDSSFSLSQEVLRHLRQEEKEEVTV
- Assay Notes: Differential scanning fluorimetry (DSF) with AQ STING
- Format: binding
- Condition Description: thermal shift, truncated human AQ STING 0.1 mg/ml, 150 μM CDN; read-out: DSF ΔTm AQ STING
Observable: ΔTm at 150 µM (°C)

>  <Compound>
C#Cc1cn([C@@H]2O[C@@H]3COP(=O)(O)OC4C(O)[C@@H](COP(=O)(O)OC3C2O)C[C@H]4n2cnc3c(=O)[nH]c(N)nc32)c2ncnc(N)c12 (stereo partly drawn) [Compound 114]

>  <System Name>
AQ STING (G230A-R293Q) (Homo sapiens, UniProt Q86WV6, G230A/H232R/R293Q)

>  <Result Value>
10.3

$$$$

(A) CNc1ncnc2c1ncn2[C@@H]1O[C@@H]2COP(=O)(O)OC3C(O)[C@@H](COP(=O)(O)OC2C1O)C[C@H]3n1cnc2c(=O)[nH]c(N)nc21 (stereo partly drawn) [Compound 108]
(B) Nc1ncnc2c1ncn2[C@@H]1O[C@@H]2COP(=O)(O)OC3C(O)[C@@H](COP(=O)(O)OC2C1O)C[C@H]3n1cnc2c(=O)[nH]cnc21 (stereo partly drawn) [Compound 120]
Select the item with the higher value of ΔTm at 150 µM from the options A and B listed. To answer, give the label that identifies your chosen option.
B
(B: 18.3 °C, A: 12.5 °C)

###

- System Name: WT STING (Homo sapiens, UniProt Q86WV6, H232R)
- Sequence (Q86WV6 140-343 H232R): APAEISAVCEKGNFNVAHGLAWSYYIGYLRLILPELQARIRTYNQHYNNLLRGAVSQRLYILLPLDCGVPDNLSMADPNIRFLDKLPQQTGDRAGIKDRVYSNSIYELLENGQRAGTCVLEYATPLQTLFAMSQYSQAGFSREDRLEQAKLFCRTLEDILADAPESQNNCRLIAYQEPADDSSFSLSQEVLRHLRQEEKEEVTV
- Assay Notes: Differential scanning fluorimetry (DSF) with WT STING
- Type: binding
- Parameters: truncated human WT STING or AQ STING (amino acid residues 140-343); 8xHis (N, cleaved yes); SUMO (N, cleaved yes); made in house; host or cells: E. coli Rosetta-gami B (DE3)
- Condition Description: thermal shift, truncated human WT STING 0.1 mg/ml, 150 μM CDN
Observable: DSF ΔTm WT STING (°C)

>  <Molecule>
Nc1ncnc2c1ncn2[C@@H]1O[C@@H]2COP(=O)(S)O[C@@H]3[C@H](F)[C@@H](COP(=O)(S)O[C@H]2[C@H]1F)C[C@H]3n1cnc2c(=O)[nH]cnc21 (single isomer, unassigned) [Compound 128c]

>  <Output Unit>
°C

>  <Result Value>
11.4

$$$$
>  <Molecule>
Nc1ncnc2c1ncn2[C@@H]1O[C@@H]2COP(=O)(S)O[C@@H]3[C@H](F)[C@@H](COP(=O)(S)O[C@H]2[C@H]1F)C[C@H]3n1cnc2c(=O)[nH]cnc21 (single isomer, unassigned) [Compound 128d]

>  <Output Unit>
°C

>  <Result Value>
13.4

$$$$
>  <Molecule>
Nc1ncnc2c1ncn2[C@@H]1O[C@@H]2COP(=O)(S)O[C@@H]3[C@H](F)[C@@H](COP(=O)(S)O[C@H]2[C@H]1F)C[C@H]3n1cnc2c(=O)[nH]cnc21 (single isomer, unassigned) [Compound 128b]

>  <Output Unit>
°C

>  <Result Value>
7.9

$$$$
>  <Molecule>
Nc1ncnc2c1ncn2[C@@H]1O[C@@H]2COP(=O)(O)OC3C(O)[C@@H](COP(=O)(O)OC2C1O)C[C@H]3n1cnc2c(=O)[nH]cnc21 (stereo partly shown) [Compound 121]

>  <Output Unit>
°C

>  <Result Value>
9.4

$$$$
